experiment: Cell viability assay (resazurin), BJhTERT non-transformed control; type: cell-based; settings: human, BJhTERT immortalized fibroblast cells, BJhTERT, Log conc. (M) 1.51356e-8; read-out: cell viability, cytotoxicity curve (Figure3H)
measured_metric: viability at 72 h, 1.51356e-08 M
Please don't drop the unit; write it after the number.

Ask | // viability at 72 h, 1.51356e-08 M lookup, key: O=C(Nc1ccc(I)cc1)N1CCC(n2c(=O)[nH]c3c(Br)cccc32)CC1 [TH5487, reference compound]
Reply | 78%

----------
Measured ∆Tm (K) accompanies every entry in the list below.
Molecular target: human OGG1 enzyme (Homo sapiens)
Assay: Differential scanning fluorimetry (DSF) thermal shift assay
Format: binding
Conditions: 495 µM
Protocol: The temperature was increased from 20 °C to 85 °C with 10 readings/degree. Tm values were calculated using an excel template and fitting to the Boltzmann equation in Prism v.6.07 (GraphPad Software).
Form entry: value (K) — number only.

Field: example entries. Status: answers known.
[[record]]
compound = "Cc1cnc(Nc2ncnc3ccccc23)s1"
unit_symbol = "K"
experimental_value = -0.03

[[record]]
compound = "COc1ccc(F)cc1CNC(=O)c1cn[nH]c1"
unit_symbol = "K"
experimental_value = -0.01


Ask | // ∆Tm (K) lookup, key: CC1CC1CNC(=O)C1CCc2cccnc21 (centres unmarked)
Reply | 0.38

Ask | // ∆Tm (K) lookup, key: Cc1conc1NC(=O)c1nc(Cl)cs1
Reply | -0.03

Ask | // ∆Tm (K) lookup, key: CC1(C)CC(NC(=O)c2csc3cncn23)C1
Reply | 0.5

----------
assay: Cell viability assay (resazurin), BJhTERT non-transformed control; format: cell-based; conditions: human, BJhTERT immortalized fibroblast cells, BJhTERT, 100 μM, two independent experiments; read-out: percentage cell viability
Measured viability at 72 h, 100 µM accompanies every entry in the list below.
Form entry: value (%) — number only.

Ask | // viability at 72 h, 100 µM lookup, key: Cc1nc(-c2cc(F)c(CC(=O)Nc3noc4c3CCCC4)c(F)c2)c(C)[nH]1 [compound 23]
Reply | 67.4

Ask | // viability at 72 h, 100 µM lookup, key: Cc1nc(-c2ccc(CC(=O)Nc3noc4c3CCCC4)cc2)c(C)[nH]1 [compound 17]
Reply | 28

----------
test: Cell viability assay (resazurin), BJhTERT non-transformed control; type: cell-based; conditions: human, BJhTERT, Log conc. (M) 4.0738e-7; read-out: cell viability, cytotoxicity curve (Figure3H)
measured_metric: viability at 72 h, 4.0738e-07 M
Please don't drop the unit; write it after the number.

Ask | // viability at 72 h, 4.0738e-07 M lookup, key: Nc1nn(-c2ccc(CC(=O)Nc3noc4c3CCCC4)cc2)c2ccccc12 [compound 11]
Reply | 79.8%

----------
biological target: UniProt O15527; assay: Differential scanning fluorimetry (DSF) thermal shift assay; format: binding; settings: 99 μM
measured_metric: ∆Tm (K)
Please don't drop the unit; write it after the number.

Field: example entries. Status: answers known.
[[record]]
compound = "Cc1cccc2nc(C(=O)NCc3ccc(Br)o3)cn12 [ZINC000677630607]"
measured_metric = "∆Tm (K)"
experimental_value = "-0.08 K"

[[record]]
compound = "C[C](CNC(=O)c1cn(-c2ccccc2)nn1)Oc1ccc(C)cc1 [ZINC000080662795]"
measured_metric = "∆Tm (K)"
experimental_value = "-0.11 K"

[[record]]
compound = "O=C(NCc1nc(-c2ccccc2)no1)c1cn(-c2ccccc2)nn1 [ZINC000507023994]"
measured_metric = "∆Tm (K)"
experimental_value = "-0.92 K"

[[record]]
compound = "Cc1nc(-c2ccc(CC(=O)Nc3noc4c3CCCC4)c(F)c2)c(C)[nH]1 [compound 20]"
measured_metric = "∆Tm (K)"
experimental_value = "8.6 ± 0.5 K"


Here is the next item to consider.
Ask | # value lookup — system UniProt O15527, readout ∆Tm (K), item COc1ccc(C2(CNC(=O)c3ccc(F)s3)CCC2)cc1 [ZINC000572161337]
Reply | 0.17 K

----------
experiment: Cell viability assay (resazurin), BJhTERT non-transformed control; assay type: cell-based; conditions: human, BJhTERT immortalized fibroblast cells, BJhTERT, Log conc. (M) 4.0738e-7; read-out: cell viability, cytotoxicity curve (Figure3H)
measured_metric: viability at 72 h, 4.0738e-07 M (%)
Form entry: value (%) — number only.

Ask | // viability at 72 h, 4.0738e-07 M lookup, key: O=C(Nc1ccc(I)cc1)N1CCC(n2c(=O)[nH]c3c(Br)cccc32)CC1 [TH5487, reference compound]
Reply | 80.5

----------
Measured viability at 100 µM accompanies every entry in the list below.
system: A549 cells; test: Cancer cell viability assay (resazurin), A549; type: cell-based; settings: Homo sapiens, A549, A549, 100 μM, two independent experiments; read-out: percentage cell viability

[[record]]
smiles_data = "Cc1cc(C2CC2)n(-c2ccc(CC(=O)Nc3noc4c3CCCC4)cc2)n1"
tgt = "A549 cells"
experimental_value = "68.1%"

[[record]]
smiles_data = "Cc1nc(-c2ccc(CC(=O)Nc3noc4c3CCCC4)cc2F)c(C)[nH]1"
tgt = "A549 cells"
experimental_value = "53.3%"

[[record]]
smiles_data = "Cc1nc(-c2ccc(CC(=O)Nc3noc4c3CCCC4)cc2)c(C)[nH]1"
tgt = "A549 cells"
experimental_value = "52.6%"

[[record]]
smiles_data = "Cc1nn(-c2ccc(CC(=O)Nc3noc4c3CCCC4)cc2)c2ccccc12"
tgt = "A549 cells"
experimental_value = "5.97%"


Here is the next item to consider.
Ask | # value lookup — system A549 cells, readout viability at 100 µM, item Nc1nn(-c2ccc(CC(=O)Nc3noc4c3CCCC4)cc2)c2ccccc12
Reply | 17.2%

----------
assay: Cell viability assay (resazurin), BJhTERT non-transformed control; type: cell-based; conditions: human, BJhTERT, Log conc. (M) 5.12861e-9; read-out: cell viability, cytotoxicity curve (Figure3H)
measured_metric: viability at 72 h, 5.12861e-09 M (%)
Form entry: value (%) — number only.

Ask | // viability at 72 h, 5.12861e-09 M lookup, key: Nc1nn(-c2ccc(CC(=O)Nc3noc4c3CCCC4)cc2)c2ccccc12 [compound 11]
Reply | 94.3

----------
biological target: human OGG1 enzyme (Homo sapiens, UniProt O15527); assay: Differential scanning fluorimetry (DSF) thermal shift assay; assay type: binding; design: unit of the concentration uncertain; conditions: 495 (unit uncertain) as printed in sheet footnote
Sequence (O15527 whole entry): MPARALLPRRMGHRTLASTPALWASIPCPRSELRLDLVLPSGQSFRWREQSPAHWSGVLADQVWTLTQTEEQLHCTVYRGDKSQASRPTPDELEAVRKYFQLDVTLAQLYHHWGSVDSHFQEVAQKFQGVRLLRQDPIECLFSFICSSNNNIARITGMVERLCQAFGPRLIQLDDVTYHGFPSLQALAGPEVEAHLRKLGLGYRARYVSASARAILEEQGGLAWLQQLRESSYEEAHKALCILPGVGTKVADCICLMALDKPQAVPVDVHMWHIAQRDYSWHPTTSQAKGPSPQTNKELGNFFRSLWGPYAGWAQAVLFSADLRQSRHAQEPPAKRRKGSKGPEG
Lab note: compare ∆Tm (K) against 3 K. Equal or greater, write Met. Smaller, write Not met.

[[record]]
molecule = "Cc1ccc(CNC(=O)c2ccc(F)nc2)cc1"
tgt = "human OGG1 enzyme (Homo sapiens, UniProt O15527)"
label = "Not met"

[[record]]
molecule = "CC1(C)CC(NC(=O)c2csc3cncn23)C1"
tgt = "human OGG1 enzyme (Homo sapiens, UniProt O15527)"
label = "Not met"

[[record]]
molecule = "O=C(Nc1noc2c1CCCC2)C1CC12CCC2 (centres unmarked)"
tgt = "human OGG1 enzyme (Homo sapiens, UniProt O15527)"
label = "Not met"

[[record]]
molecule = "CC1(C)CC1(C)NC(=O)c1cc2cccn2cn1 (centres unmarked)"
tgt = "human OGG1 enzyme (Homo sapiens, UniProt O15527)"
label = "Not met"


Please look at the following molecule next.
Ask | Check this molecule for ∆Tm (K) at or above 3 K: O=C(Nc1ccc(I)cc1)N1CCC(n2c(=O)[nH]c3c(Br)cccc32)CC1 [TH5487, reference compound]
Reply | Met

----------
test system: A549 cells; experiment: Cancer cell viability assay (resazurin), A549; assay type: cell-based; conditions: A549, 100 μM, two independent experiments; 100 µM
Measured percentage cell viability accompanies every entry in the list below.
Form entry: value (%) — number only.

Field: example entries. Status: answers known.
[[record]]
smiles_data = "O=C(Cc1ccc(-n2nc(Cl)c3ccccc32)cc1)Nc1noc2c1CCCC2"
unit_symbol = "%"
experimental_value = 10.09

[[record]]
smiles_data = "Cc1nc(-c2ccc(CC(=O)Nc3noc4c3CCCC4)cc2F)c(C)[nH]1"
unit_symbol = "%"
experimental_value = 56.99

[[record]]
smiles_data = "Cc1nc(-c2ccc(CC(=O)Nc3noc4c3CCCC4)nc2)c(C)[nH]1"
unit_symbol = "%"
experimental_value = 96.69


Here is the next item to consider.
Ask | // percentage cell viability lookup, key: Cc1nc(-c2ccc(CC(=O)Nc3noc4c3CCCC4)cc2)c(C)[nH]1
Reply | 56.76

----------
target: UniProtKB O15527; test: Differential scanning fluorimetry (DSF) thermal shift assay; type: binding; details: 495 µM
Measured ∆Tm (K) accompanies every entry in the list below.
Form entry: value (K) — number only.

Field: example entries. Status: answers known.
[[record]]
compound = "Cc1cc(CNC(=O)c2c(O)cccc2F)[nH]n1"
experimental_value = 0.01

[[record]]
compound = "COCc1csc(NCc2ccccc2)n1"
experimental_value = -0.06

[[record]]
compound = "CCC(C)(O)C(=O)Nc1nnc2n1CCCC2 (stereo not shown)"
experimental_value = -0.15

[[record]]
compound = "Cc1n[nH]cc1CNC(=O)NC1(C)CC1(C)C (stereo not shown)"
experimental_value = 0.01

[[record]]
compound = "Cc1cc(=O)c(C(=O)NC2(C)CC2(C)C)c[nH]1 (stereo not shown)"
experimental_value = 0.03

[[record]]
compound = "Cc1n[nH]cc1CNC(=O)C(C)c1ccccc1 (stereo not shown)"
experimental_value = 0.08


Ask | # value lookup — system UniProtKB O15527, readout ∆Tm (K), item Cc1csc(Nc2ncnc3sccc23)n1
Reply | -0.51

Ask | # value lookup — system UniProtKB O15527, readout ∆Tm (K), item Cc1ccc(CNC(=O)c2ccc(F)nc2)cc1
Reply | 0.6

Ask | # value lookup — system UniProtKB O15527, readout ∆Tm (K), item CCCC1CCCC1C(=O)NCc1c[nH]nc1C (stereo not shown)
Reply | 0.18

Ask | # value lookup — system UniProtKB O15527, readout ∆Tm (K), item COCC(C)(O)C(=O)Nc1cnc2ccccn12 (stereo not shown)
Reply | 0.11
